Cited source: patent US20070128217A1

- System: rabbit serum obtained by immunizing a rabbit with the SARS-CoV strain Frankfurt 1
- Type: binding
- Parameters: unit not given here
measured_endpoint: Rabbit serum linear peptides

>>> df
   construct_sequence             measured_endpoint  reading
0     AYSNRNRFLYIIKLV  Rabbit serum linear peptides      0.3
1     LVDFQVTIAEILIII  Rabbit serum linear peptides      0.3
2     FAAYNRYRIGNYKLN  Rabbit serum linear peptides      0.3
3     TCTPNVTINCQDPAG  Rabbit serum linear peptides      0.5
4     AAFRDVLVVLNKRTN  Rabbit serum linear peptides      0.5
5     WHTMVQTCTPNVTIN  Rabbit serum linear peptides      0.5

---

- System: antibodies in sera from SARS patients (sera 1a, 1b, 2, 6, 37, 62, London, SARS-yellow, SARS-green)
- Format: binding, human
# reported Binding of serum 62 to looped/cyclic peptides of protein M of SARS-CoV Urbani; entries follow
measured_endpoint: Binding of serum 62 to looped/cyclic peptides of protein M of SARS-CoV Urbani

>>> print(df.to_string())
    construct_sequence  reading
 0     ETNILLNVPLRGTIV      0.5
 1     IMLLQFAYSNRNRFL      0.5
 2     MWSFNPETNILLNVP      0.8
 3     LFARTRSMWSFNPET      0.6
 4     IGFLFLAWIMLLQFA      0.8
 5     QRVGTDSGFAAYNRY      0.5
 6     VATSRTLSYYKLGAS      0.6
 7     IKDLPKEITVATSRT      0.6
 8     YRIGNYKLNTDHAGS      0.6
 9     LFLAWIMLLQFAYSN      0.7
10     FLFLAWIMLLQFAYS      0.8
11     WSFNPETNILLNVPL      0.7
12     PLMESELVIGAVIIR      0.8
13     KQLLEQWNLVIGFLF      0.7

---

- System: antibodies in sera from SARS patients (sera 1a, 1b, 2, 6, 37, 62, London, SARS-yellow, SARS-green)
- Format: binding, human
measured_endpoint: Binding of serum SARS-green to linear peptides of protein X2

>>> print(df.to_string())
    construct_sequence  reading
 0     TTSLSLHKLLQTLVL      0.6
 1     TVYHITVSQIQLSLL      0.1
 2     TSLLKTHRMCKYTQS      0.6
 3     IQFMMSRRRLLACLC      0.6
 4     LSLHKLLQTLVLKML      0.4
 5     QFMMSRRRLLACLCK      0.4
 6     SPKFTTSLSLHKLLQ      0.5
 7     MAISPKFTTSLSLHK      0.5
 8     ISPKFTTSLSLHKLL      0.5
 9     RMCKYTQSTALQELL      0.6
10     QSTALQELLIQQWIQ      0.6
11     ITVSQIQLSLLKVTA      0.1

---

- Tested on: control sera (pooled serum of ten healthy LUMC hospital workers; commercial negative donor pooled serum from the Dutch bloodbank)
- Format: binding, human
- Set-up: unit not given here
measured_endpoint: Binding of Control serum LUMC to linear peptides

In [3]: df
Out[3]:
    construct_sequence  reading
 0     DGKMKELSPRWYFYY      0.6
 1     QDPAGGALIARCWYL      0.3
 2     YYRRATRRVRGGDGK      0.6
 3     DGTRHTYQLRARSVS      0.5
 4     FIRQEEVQQELYSPL      0.7
 5     PCPSGTYEGNSPFHP      0.5
 6     KIILFLTLIVFTSCE      0.9
 7     TPNVTINCQDPAGGA      0.5
 8     GNSRNSTPGSSRGNS      0.7
 9     LALYKGFQFICNLLL      0.5
10     STNLCTHSFRKKQVR      0.8
11     RGNSRNSTPGSSRGN      0.6
12     TDSTDNNQNGGRNGA      0.8
13     CALGKVLPFHRWHTM      0.7
14     WHTMVQTCTPNVTIN      0.5
15     VTDTIVVTEGDGIST      0.4
16     QTCTPNVTINCQDPA      0.4
17     VYSRVKNLNSSEGVP      0.6
18     THRMCKYTQSTALQE      0.7
19     IIMRCWLCWKCKSKN      0.4
20     EQTQGNFGDQDLIRQ      1.0
21     PKGFYAEGSRGGSQA      0.7
22     HIGTRNPNNNAATVL      0.9
23     CELYHYQECVRGTTV      0.5
24     FLIVAALVFLILCFT      0.4
25     NSKKTTKLVVILRIG      0.9
26     VRGGDGKMKELSPRW      0.8
27     LLIQQWTQFMMSRRR      0.4
28     RGQGVPINTNSGPDD      0.5
29     CNLLLLFVTIYSHLL      0.4
30     TIDGSSGVANPAMDP      0.6
31     VKPTVYVYSRVKNLN      0.4
32     TEGALNTPKDHIGTR      0.9
33     TQAFGRRGPEQTQGN      0.7
34     ADGTRHTYQLRARSV      0.6
35     GWLVIGVAFLAVFQS      0.6
36     RRPQGLPNNTASWFT      0.7
37     VTIYSHLLLVAAGME      0.5
38     GVANPAMDPIYDEPT      0.3
39     DPAGGALIARCWYLH      0.3
40     VCWHTHNYDYCIPYN      0.8
41     KGFYAEGSRGGSQAS      0.5
42     ILRIGTQVLKTMSLY      0.4
43     TQVLKTMSLYMAISP      0.7
44     FGWLVIGVAFLAVFQ      0.5
45     TCTPNVTINCQDPAG      0.5
46     IDNASPASTVHATAT      0.7
47     DTGIENATFFIFNKL      0.5
48     TTSLSLHKLLQTLVL      0.4
49     NKEGIVWVATEGALN      0.7
50     PTVYVYSRVKNLNSS      0.5
51     KNPLLYDANYFVCWH      0.4
52     PINTNSGPDDQIGYY      0.7
53     ALTCTSTHFAFACAD      0.8
54     NTASWFTALTQHGKE      0.6
55     GSQASSRSSSRSRGN      0.8
56     SPKFTTSLSLHKLLQ      0.3
57     NVSLVKPTVYVYSRV      0.5
58     DDQIGYYRRATRRVR      1.0
59     EDYQIGGYSEDRHSG      0.4
60     IFNKLVKDPPNVQIH      1.0
61     ELYSPLFLIVAALVF      0.3
62     QFMMSRRRLLACLCK      0.5
63     TQHGKEELRFPRGQG      0.8
